Please provide measured melting point for the entries that follow.

INSERT INTO assay_data (compound, measurement_type, experimental_result) VALUES
  ('O=C(O)c1cc(-c2ccc3c(c2)CCO3)nn(Cc2ccc(Cl)cc2)c1=O', 'melting point', '200 to 210 °C');

// input: 2 compounds below; output: melting point for each
1. CNC(=O)Nc1ccc(OC)c(-c2ccc(C[C@H](NC(=O)c3c(Cl)cccc3Cl)C(=O)O)cc2)c1OC
2. COC(=O)/C(=C/CC[C@H](NC(=O)OCc1ccccc1)C(=O)N[C@H](C)C(=O)OC)NC(=O)OC(C)(C)C

A:
1. 236 to 237 °C
2. 120 to 121 °C

// input: 4 compounds below; output: melting point for each
1. COc1ccc2c(c1)c(CC(=O)OCc1cccnc1)c(C)n2C(=O)c1ccc(Cl)cc1
2. COc1ccc(-n2nc(NC(=O)OC(C)(C)C)c3csc(N)c3c2=O)cc1
3. CN(C(=O)COc1cc(-c2ccccc2)nc2ccccc12)C(C)(C)C
4. Oc1ccc(-c2nnc(-c3ccccc3)o2)cc1

A:
1. 116 to 118 °C
2. 99 to 101 °C
3. 90 °C
4. 256 °C

// input: 3 compounds below; output: melting point for each
1. c1ccc(Nc2nsc3ccccc23)nc1
2. CCS(=O)(=O)N(C)[C@@H]1c2cc(OCc3ccccc3)ccc2OC(C)(C)[C@H]1O
3. COc1cc(C(=O)c2cccnc2)cc([N+](=O)[O-])c1O

A:
1: 247 to 249 °C; 2: 165 to 167 °C; 3: 193 °C

// input: 6 compounds below; output: melting point for each
1. CS(=O)(=O)CCCCCn1c(C(F)(F)F)nc2c(N)nc3ccccc3c21
2. CCC(=O)C1=C(O)CC(c2ccc3c(c2)OCO3)CC1=O (configuration not stated)
3. CCOC(=O)CC(=O)C(C)(C)Sc1ccccc1
4. O=C(O)c1ncccc1Cl
5. N#CC1=C(C#N)NC(c2ccccc2)C(O)=N1 (configuration not stated)
6. Cc1nc(C)c(C)c(NCCNCC(O)COc2ccccc2)n1 (configuration not stated)

A:
1. 192 to 195 °C
2. 129 °C
3. 44 to 45 °C
4. 126 to 128 °C
5. 222 to 224 °C
6. 119 to 121 °C

Recorded values, source a melting point compilation (Tetko et al.; mined from patent text by program, amines drawn as free bases though some values may be those of a salt).
